// reported 24 hr Dox Inducible IL2FLGluc 293FRT/TO: IL2/PD1 for each item listed
Test system: IL-2-FL/Gaussia Luciferase
Test: Dox Induced IL2-FL-Gluc Assay
Assay type: cell-based
Conditions: ratio of IL2FLGluc IC50 to PD1ssGluc IC50
Output: the number by itself.

Give the measured 24 hr Dox Inducible IL2FLGluc 293FRT/TO: IL2/PD1 for [2H]c1c([2H])c([2H])c(N2CCC[C@@H]2c2csc(NC(=O)c3cccn3Cc3ccnc(F)c3)n2)c([2H])c1[2H]
2

Provide measured 24 hr Dox Inducible IL2FLGluc 293FRT/TO: IL2/PD1 value, entry: Cc1ocnc1/C=C/c1csc(NC(=O)c2cccn2Cc2ccncc2)n1
140

Give reported 24 hr Dox Inducible IL2FLGluc 293FRT/TO: IL2/PD1 value for O=C(Nc1nc(-c2cccc(-c3ccccn3)c2)cs1)c1cccn1Cc1ccnc(F)c1
2.4

Indicate the recorded 24 hr Dox Inducible IL2FLGluc 293FRT/TO: IL2/PD1 value for this molecule: O=C(CO)Nc1ccc(N2CCC[C@@H]2c2csc(NC(=O)c3cccn3Cc3ccnc(F)c3)n2)cc1
2

Supply recorded 24 hr Dox Inducible IL2FLGluc 293FRT/TO: IL2/PD1 for CCc1ccc(N2CCC[C@@H]2c2csc(NC(=O)c3cccn3Cc3ccnc(F)c3)n2)cc1 here.
1.8

Please supply the value of reported 24 hr Dox Inducible IL2FLGluc 293FRT/TO: IL2/PD1 for the item COC(=O)Nc1ccc(N2CCC[C@@H]2c2csc(NC(=O)c3cccn3Cc3ccnc(F)c3)n2)nc1
4.3
